// data source = ChEMBL document CHEMBL5303304

test system: HEK-293T; test: Incucyte cell viability with HEK293T; assay type: toxicity, cell-based; settings: human, 0 h, 10 µM, compound concentration 10 uM, replicate number 2; note: unitless GR value; below 1 slowed growth and below 0 cell loss
Where Growth Rate equals or exceeds 0.09, the correct label is satisfied; where it does not, the label is not satisfied.

Answered cases to consult:
- MOLECULE: "COc1cc2c(NC3CCN(C(C)C)CC3)nc(C3CCCCC3)nc2cc1OCCCN1CCCC1"
  ASSIGNED CATEGORY: "not satisfied"
- MOLECULE: "CC(C)(C)c1ccc2c(c1)CC[C@H]2NC(=O)Nc1cccc2[nH]ncc12"
  ASSIGNED CATEGORY: "satisfied"
- MOLECULE: "Fc1ccc(-c2nc(-c3c(F)cccc3F)[nH]c2-c2ccncc2)cc1"
  ASSIGNED CATEGORY: "satisfied"
- MOLECULE: "O=C(NCc1ccc(F)cc1)C1CCN(S(=O)(=O)c2cc(Cl)cc(Cl)c2)CC1"
  ASSIGNED CATEGORY: "not satisfied"
- MOLECULE: "COc1cc(-c2cncc(-c3ccc(N4CCN(C(C)C)CC4)cc3)c2C)cc(F)c1C(=O)N1CCCC1"
  ASSIGNED CATEGORY: "not satisfied"
- MOLECULE: "CC(=O)Oc1ccc2c(c1)[C@@]1(C)CCC[C@](C)(C(=O)OC(=O)[C@@]3(C)CCC[C@]4(C)c5cc(OC(C)=O)ccc5CC[C@@H]34)[C@@H]1CC2 [ACETYL PODOCARPIC ACID ANHYDRIDE]"
  ASSIGNED CATEGORY: "satisfied"
- MOLECULE: "CN(C)c1ccc(-c2cc3ncccc3c(OCCCCO)n2)cc1.O=C(O)C(F)(F)F"
  ASSIGNED CATEGORY: "not satisfied"
- MOLECULE: "CO[C@H]1CC[C@H](N(c2cc(F)c(Oc3ncc(Cn4nccn4)cc3C(F)(F)F)cc2C(=O)O)C(=O)[C@H]2CC[C@H](C)CC2)CC1"
  ASSIGNED CATEGORY: "not satisfied"

API: above_or_equal(metric=Growth Rate, cutoff=0.09) for item COCCNc1cc(NC(=O)N2CCCc3cc(CN4CCN(C)CC4=O)c(C=O)nc32)ncc1C#N
satisfied

Could you verify whether the entry CC(C=CC1=C(C)CCCC1(C)C)=CC=CC(C)=CC(=O)O shows Growth Rate of no less than 0.09?
not satisfied

Does COc1ccc(OC(=O)N(CC(=O)O)Cc2ccc(OCCc3nc(-c4ccccc4)oc3C)cc2)cc1 have a reported Growth Rate of at least 0.09?
not satisfied

----------
tested on: HEK-293T; assay: Incucyte cell viability with HEK293T; format: toxicity, cell-based; conditions: human, 6 h, 10 µM, compound concentration 10 uM, replicate number 2; note: unitless GR value; below 1 slowed growth and below 0 cell loss
Numbered stars: 1 amine (or outer) side, 2 acyl side, 3 side chain; on linkers, the order of the positions; unused ones are H or OH. Bridge positions count the residues as written; N and C are the ends. Square brackets hold non-standard residues; d marks the D form. Peptide text beside a SMILES is read from it. I, II: the chains in the order shown. Hexamethylenediamine = C(CCCN[*:2])CCN[*:1]; Dip = N[C@H](C(=O)O)C(c1ccccc1)c1ccccc1; Chg = N[C@H](C(=O)O)C1CCCCC1; NMeA = CN[C@@H](C)C(=O)O
This section presents compounds with their documented Growth Rate values.
A bare number is all that is needed in reply.

Some solved entries appear below for comparison.
- COMPOUND: "O[C@]1(C(F)(F)F)CCCC[C@H]1Nc1ccc(F)cc1"
  QUANTITY KIND: "Growth Rate"
  REPORTED RESULT: 0.5
- COMPOUND: "Nc1ncnc2[nH]c(-c3ccccc3)nc12"
  QUANTITY KIND: "Growth Rate"
  REPORTED RESULT: 0.23
- COMPOUND: "CC(C)(C)c1cc(NC(=O)c2csc(Nc3ccccn3)n2)no1"
  QUANTITY KIND: "Growth Rate"
  REPORTED RESULT: -0.51
- COMPOUND: "CC(C)(C)C1CCc2c(sc(NC(=O)c3ccco3)c2C(=O)O)C1 (stereo unspecified)"
  QUANTITY KIND: "Growth Rate"
  REPORTED RESULT: 0
- COMPOUND: "C[C@@H]1CC(=O)N(C2CC2)N=C1c1ccc(NC(=O)N2Cc3ccncc3C2)cc1"
  QUANTITY KIND: "Growth Rate"
  REPORTED RESULT: 0.39

Value sought: Growth Rate, system HEK-293T, item Nc1n[nH]c2nc(-c3ccc(NS(=O)(=O)c4cccc(Cl)c4Cl)cc3)cnc12 . Result: 0.42

The compound O=C1C[C@@H]2OCC=C3CN4CC[C@]56c7ccccc7N1[C@H]5[C@H]2[C@H]3C[C@H]46 , when measured on HEK-293T, yielded Growth Rate of 0.44

The recorded Growth Rate with HEK-293T for Cc1[nH]c2c(N3CCCCC3)c(-c3ccccc3)nn2c(=O)c1-c1ccc(O)cc1 was 0.55

The value of Growth Rate recorded for O=C(Nc1ccc(C(O)(C(F)(F)F)C(F)(F)F)cc1)c1ccc(C(F)(F)F)cc1 when tested on HEK-293T reads 0.09

Summary: Fc1ccc(-c2nc(-c3c(F)cccc3F)[nH]c2-c2ccncc2)cc1 , HEK-293T, Growth Rate = 0.27

The reported HEK-293T Growth Rate of Cc1nc2c(cc1F)c(-c1nnc3c(n1)NC(=O)C3(C)C)nn2Cc1cccc(F)c1F is 0.57

Per the reported HEK-293T data, O=C(N[C@H]1CCCCC/C=C\C2C[C@@]2(C(=O)O)NC(=O)[C@@H]2C[C@@H](Oc3ccncc3)CN2C1=O)OC1CCCC1 (stereo partly specified) has Growth Rate of 0.64

// assay HEK-293T, entry CNC1(C)C2CCC(C2)C1(C)C.Cl (stereo unspecified) [MECAMYLAMINE HYDROCHLORIDE] , Growth Rate value = 0.89

// Growth Rate (HEK-293T) for CN[C@@H](C)C(=O)N[C@H](C(=O)N1CCC[C@H]1C(=O)N[C@H](C(=O)NCCCCCCNC(=O)[C@@H](NC(=O)[C@@H]1CCCN1C(=O)[C@@H](NC(=O)[C@H](C)NC)C1CCCCC1)C(c1ccccc1)c1ccccc1)C(c1ccccc1)c1ccccc1)C1CCCCC1 (I: H-[NMeA][Chg]P[Dip] / II: H-[NMeA][Chg]P[Dip]; linker I:C-II:C via Hexamethylenediamine) = -0.41

Growth Rate on HEK-293T for COc1cc(N2CCC(N3CCN(C)CC3)CC2)ccc1Nc1ncc(Cl)c(Nc2ccccc2S(=O)(=O)C(C)C)n1 is -0.4

# Growth Rate measured on HEK-293T for item CN1CCC(F)(Cn2cnc(-c3ccc(F)cn3)c2-c2ccnc3[nH]ccc23)CC1 = 0.85

----------
test system: U2OS; assay: Incucyte cell viability with U2OS; assay type: toxicity, cell-based; details: human, 6 h, 10 µM, compound concentration 10 uM, replicate number 1; note: unitless GR value; below 1 slowed growth and below 0 cell loss
Growth Rate below 0.6 gives 0 (no); Growth Rate at or above it gives 1 (yes).

A selection of reference data follows.
- COMPOUND: "CCNC1=N[C@@H]2[C@@H](O)[C@H](O)[C@@H](CO)O[C@@H]2S1"
  ASSIGNED CATEGORY: "0 (no)"
- COMPOUND: "CS(=O)(=O)c1cc(C2(NC(=O)c3cncc4c3cnn4-c3ccc(F)cc3)CC2)ccn1 [BI 639667]"
  ASSIGNED CATEGORY: "1 (yes)"
- COMPOUND: "Cc1nnsc1C(=O)Nc1ccc(-n2nc(C(F)(F)F)cc2C(F)(F)F)cc1"
  ASSIGNED CATEGORY: "0 (no)"
- COMPOUND: "NS(=O)(=O)c1ccc(Nc2nc(OCC3CCCCC3)c3nc[nH]c3n2)cc1"
  ASSIGNED CATEGORY: "0 (no)"
- COMPOUND: "Fc1cccc(-n2cnc3c(NCc4nc5ccc(F)c(F)c5[nH]4)nc(N4CCOCC4)nc32)c1"
  ASSIGNED CATEGORY: "0 (no)"

Identify whether the reported Growth Rate of the following compound is 0.6 or greater: O=C(CCSCc1ccco1)NNC(=O)N1Cc2ccccc2Oc2ccc(Cl)cc21
1 (yes)

Item COCCCS(=O)(=O)c1cc(C)c(-c2ccc(F)c3c2CC[C@H]3Oc2ccc3c(c2)OC[C@H]3CC(=O)O)c(C)c1 with Growth Rate of 0.6 or above?
1 (yes)

Could you verify whether the entry C=CC(=O)Nc1ccc2[nH]c(=O)n(C3CCN(Cc4ccc(-c5ccc6c(c5)NC(=O)CO6)cc4)CC3)c2c1 [RL2578] shows Growth Rate of no less than 0.6?
1 (yes)

Quick check, Growth Rate >= 0.6? COc1cnccc1Nc1nc(-c2nn(Cc3c(F)cc(OCCO)cc3F)c3ccccc23)ncc1OC
0 (no)

Does the compound Cn1cc(-c2cnc3ccc4ccc(CS(=O)(=O)NCc5ccccn5)cc4c(=O)c3c2)cn1 [MK-8033] have recorded Growth Rate that is 0.6 or more?
1 (yes)

Is Growth Rate at least 0.6? Consider Cl.Cl.Fc1ccc([C@@H]2CCNC[C@H]2COc2ccc3c(c2)OCO3)cc1.Fc1ccc([C@@H]2CCNC[C@H]2COc2ccc3c(c2)OCO3)cc1.O [PAROXETINE HYDROCHLORIDE]
1 (yes)

Check this compound for Growth Rate at or above 0.6: COc1cc(C(=O)NC2CCN(C)CC2)ccc1Nc1ncc(C(F)(F)F)c(NCc2ccc(C)cc2N(C)S(C)(=O)=O)n1.O=CO.O=CO
1 (yes)

Is the recorded value of Growth Rate equal to or greater than 0.6 for this compound? CN(CC(=O)Nc1ccc(F)c(F)c1F)C(=O)c1ccc2c(c1)OCCO2
0 (no)

Could you tell me if the measured Growth Rate of Cc1c(N2CCCC2)nc2ccc(Br)cc2c1C(=O)NC[C@H](CCC(=O)O)c1ccccc1Cl.Cl.O reaches 0.6 or more?
1 (yes)

Would you say CCn1c(CNC(=O)c2ncc(C)nc2N)[n+](CC)c2ccc(C(=O)N(C)CCN(C)C)cc21.Cl.Cl.[Cl-] shows Growth Rate at minimum 0.6?
0 (no)

Determine whether measured Growth Rate meets or exceeds 0.6 for Cc1nc2c(cc1F)c(-c1nnc3c(n1)NC(=O)C3(C)C)nn2Cc1cccc(F)c1F
1 (yes)
